# System Under Test: IDH1 R132H (Homo sapiens, UniProt O75874, R132H)
# Sequence (O75874 whole entry R132H): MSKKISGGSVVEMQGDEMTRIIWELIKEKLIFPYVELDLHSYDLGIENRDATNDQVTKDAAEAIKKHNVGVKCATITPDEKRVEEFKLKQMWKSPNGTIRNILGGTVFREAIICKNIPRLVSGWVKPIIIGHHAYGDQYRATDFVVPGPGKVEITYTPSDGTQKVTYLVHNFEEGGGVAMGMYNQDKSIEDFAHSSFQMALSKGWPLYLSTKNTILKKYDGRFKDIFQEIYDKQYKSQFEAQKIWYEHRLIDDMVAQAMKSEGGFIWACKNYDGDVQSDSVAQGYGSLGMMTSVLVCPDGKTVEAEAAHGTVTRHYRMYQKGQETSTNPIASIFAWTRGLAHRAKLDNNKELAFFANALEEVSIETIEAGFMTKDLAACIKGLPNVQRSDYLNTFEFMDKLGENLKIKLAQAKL
# Assay Procedure: IDH1 R132H enzymatic assay (NADPH depletion coupled to diaphorase/resazurin)
# Format: biochemical
# Experimental Setup: IDH1 R132H enzymatic inhibition, IC50 class
Reported Property: IC50

Consider the reported IC50 for these compounds:
[
  {
    "Compound": "CCc1cccc(CC)c1-n1c(CC(C)C)c(CO)cc(-c2nc(-c3ccc(Cl)cc3)cs2)c1=O",
    "IC50": "300 to 1000 nM"
  },
  {
    "Compound": "CCc1cccc(CC)c1-n1c(CC(C)C)c(C(=O)NC(CC)CO)cc(-c2nc(-c3ccc(Cl)cc3)cs2)c1=O (stereo not shown)",
    "IC50": "1000 to 5000 nM"
  },
  {
    "Compound": "CCCC1CNCCN1C(=O)c1cc(-c2nc(-c3ccc(Cl)cc3)cs2)c(=O)n(-c2c(CC)cccc2CC)c1C=C(C)C (stereo not shown)",
    "IC50": "300 to 1000 nM"
  }
]

Turning now to a further record.
q: Provide IC50 value for the following compound: "COc1ccc(F)cc1-n1c2c(cc(-c3nc(-c4ccc(Cl)cc4)cs3)c1=O)C(=O)CC(C)(C)C2"
a: 300 to 1000 nM

====

# pIC50 listing for each entry below
# System Under Test: IDH1 R132C (Homo sapiens, UniProt O75874, R132C)
# Sequence (O75874 whole entry R132C): as the sequence (O75874 whole entry R132H) above, with H132C counted along it
# Assay Procedure: IDH1 R132C enzymatic assay (NADPH depletion coupled to diaphorase/resazurin)
# Format: biochemical
# Experimental Setup: IDH1 R132C enzymatic inhibition, IC50 class
pIC50: −log10 of the molar value.

Consider the reported pIC50 for these compounds:
[
  {
    "Compound": "CCc1cccc(CC)c1-n1c(COC)c(C(=O)N2CCNCC2)cc(-c2nc(-c3ccc(Cl)cc3)cs2)c1=O [Compound 275]",
    "pIC50": "> 6.52"
  },
  {
    "Compound": "Cc1noc(C)c1-n1c2c(cc(-c3nc(-c4ccc(Cl)cc4)cs3)c1=O)C(=O)CC(C)(C)C2 [Compound 13]",
    "pIC50": "5.30 to 6.00"
  },
  {
    "Compound": "COc1ccc(OC)c(-n2cccc(-c3nc(-c4ccc(Cl)cc4)cs3)c2=O)c1 [Compound 78]",
    "pIC50": "< 4.70"
  }
]

Turning now to a further record.
q: Provide pIC50 value for the following compound: CCc1cccc(CC)c1-n1c(CC(C)C)c(C(=O)N2CCNCC2)cc(-c2nc(-c3ccc(Cl)cc3)c(Cl)s2)c1=O [Compound 662]
a: > 6.52

====

# System Under Test: IDH1 R132H (Homo sapiens, UniProt O75874, R132H)
# Assay Procedure: IDH1 R132H enzymatic assay (NADPH depletion coupled to diaphorase/resazurin)
# Format: biochemical
# Experimental Setup: IDH1 R132H enzymatic inhibition, IC50 class
# IC50 listing for each entry below

Consider the reported IC50 for these compounds:
[
  {
    "Compound": "CCc1cccc(CC)c1-n1c(CC(C)C)c(C(=O)N2CCNCC2)cc(-c2ccn(-c3ccc(C(F)(F)F)cc3)n2)c1=O",
    "System Under Test": "IDH1 R132H (Homo sapiens, UniProt O75874, R132H)",
    "IC50": "< 300 nM"
  },
  {
    "Compound": "CCc1cccc(CC)c1-n1c(C=C(C)C)c(C(=O)N2CCNCC2)cc(-c2nn(-c3ccc(Cl)cc3)cc2Br)c1=O",
    "System Under Test": "IDH1 R132H (Homo sapiens, UniProt O75874, R132H)",
    "IC50": "1000 to 5000 nM"
  }
]

q: Provide IC50 value for the following compound: "CC(C)Sc1ccccc1-n1c2c(cc(-c3nc(-c4ccc(Cl)cc4)cs3)c1=O)C(=O)CC(C)(C)C2"
a: > 20000 nM

q: Provide IC50 value for the following compound: CC1(C)CC(=O)c2cc(-c3nc(-c4ccc(Cl)cc4)cs3)c(=O)n(C3CCCc4ccccc43)c2C1 (centres unmarked)
a: > 20000 nM

q: Provide IC50 value for the following compound: CCc1cccc(CC)c1-n1c(CC(C)C)c(C(=O)N2CCCC2CO)cc(-c2nc(-c3ccc(Cl)cc3)cs2)c1=O (centres unmarked)
a: 1000 to 5000 nM

====

# System Under Test: IDH1 R132C (Homo sapiens, UniProt O75874, R132C)
# Assay Procedure: IDH1 R132C enzymatic assay (NADPH depletion coupled to diaphorase/resazurin)
# Type: biochemical
# Experimental Setup: IDH1 R132C enzymatic inhibition, IC50 class
pIC50: −log10 of the molar value.
Reported Property: pIC50

Consider the reported pIC50 for these compounds:
[
  {
    "Compound": "COc1cccc(Cl)c1-n1c(C=C(C)C)c(C(=O)N2CCNCC2)cc(-c2nc(-c3ccc(Cl)cc3)cs2)c1=O",
    "Observed Value": "> 6.52"
  },
  {
    "Compound": "Cc1cccc(CN2CCN(C)CC2)c1-n1c2c(cc(-c3nc(-c4ccc(Cl)cc4)cs3)c1=O)C(=O)CC(C)(C)C2",
    "Observed Value": "4.70 to 5.30"
  },
  {
    "Compound": "CCc1cccc(CC)c1-n1c2c(cc(-c3nc(-c4ccccc4C(F)(F)F)cs3)c1=O)C(=O)CC(C)(C)C2",
    "Observed Value": "5.30 to 6.00"
  },
  {
    "Compound": "COc1ccccc1-n1c(C=C(C)C)c(C(=O)N2CCNCC2)cc(-c2nc(-c3ccc(Cl)cc3)cs2)c1=O",
    "Observed Value": "6.00 to 6.52"
  },
  {
    "Compound": "O=c1[nH]cccc1-c1nc(-c2ccc(Cl)cc2)cs1",
    "Observed Value": "< 4.70"
  }
]

Turning now to a further record.
q: Provide pIC50 value for the following compound: "CCc1cccc(CC)c1-n1c2c(cc(-c3nc(-c4ccc(O)cc4)cs3)c1=O)C(=O)CC(C)(C)C2"
a: 4.70 to 5.30

====

# IC50 listing for each entry below
# System Under Test: IDH1 R132H (Homo sapiens, UniProt O75874, R132H)
# Assay Procedure: IDH1 R132H enzymatic assay (NADPH depletion coupled to diaphorase/resazurin)
# Type: biochemical
# Experimental Setup: IDH1 R132H enzymatic inhibition, IC50 class
# Experimental: Assays were conducted in a 1536-well black solid-bottom plate with a final assay volume of 9 μL. Specifically, for IDH1 R132H, 3 μL of enzyme (4 mM β-ME, 0.0005 mg/mL IDH1 R132H, 150 mM NaCl, 20 mM Tris pH 7.5, 10 mM MgCl2, 0.05% BSA) were added to the plate, followed by the addition of 23 nL of test compound in DMSO. […]

Consider the reported IC50 for these compounds:
[
  {
    "Compound": "CCc1cccc(CC)c1-n1c(C=C(C)C)c(C(=O)N2CCNCC2C)cc(-c2nc(-c3ccc(Cl)cc3)cs2)c1=O (stereo not drawn)",
    "Observed Value": "< 300 nM"
  },
  {
    "Compound": "CCc1cccc(CC)c1-n1c(C(C)C)c(C(=O)N2CCN[C@H](C(=O)OC)C2)cc(-c2nc(-c3ccc(Cl)cc3)cs2)c1=O",
    "Observed Value": "5000 to 20000 nM"
  },
  {
    "Compound": "CCc1cccc(CC)c1-n1c(C(C)C)c(C(=O)N2CCNC(CO)C2)cc(-c2nc(-c3ccc(Cl)cc3)cs2)c1=O (stereo not drawn)",
    "Observed Value": "300 to 1000 nM"
  },
  {
    "Compound": "CCc1cccc(C)c1-n1c2c(cc(-c3nc(-c4ccc(Cl)cc4)cs3)c1=O)C(=O)CC(C)(C)C2",
    "Observed Value": "1000 to 5000 nM"
  },
  {
    "Compound": "CCc1cccc(CC)c1-n1c(C=C(C)C)c(C(=O)N2C(C)CNCC2C(=O)O)cc(-c2nc(-c3ccc(Cl)cc3)cs2)c1=O (stereo not drawn)",
    "Observed Value": "< 300 nM"
  }
]

Turning now to a further record.
q: Provide IC50 value for the following compound: "CCc1cccc(CC)c1-n1c(C)c(C(=O)N2CCN[C@H](CO)C2)cc(-c2nc(-c3ccc(Cl)cc3)cs2)c1=O"
a: 1000 to 5000 nM

====

# System Under Test: IDH1 R132C (Homo sapiens, UniProt O75874, R132C)
# Assay Procedure: IDH1 R132C enzymatic assay (NADPH depletion coupled to diaphorase/resazurin)
# Type: biochemical
# Experimental Setup: IDH1 R132C enzymatic inhibition, IC50 class
# IC50 listing for each entry below

Consider the reported IC50 for these compounds:
[
  {
    "Compound": "CCc1cccc(CC)c1-n1c(C)c(C(=O)NC2CCCCC2)cc(-c2nc(-c3ccc(Cl)cc3)cs2)c1=O",
    "System Under Test": "IDH1 R132C (Homo sapiens, UniProt O75874, R132C)",
    "IC50": "1000 to 5000 nM"
  },
  {
    "Compound": "CCc1cccc(CC)c1-n1c(C)c(C(=O)NC)cc(-c2nc(-c3ccc(Cl)cc3)cs2)c1=O",
    "System Under Test": "IDH1 R132C (Homo sapiens, UniProt O75874, R132C)",
    "IC50": "1000 to 5000 nM"
  },
  {
    "Compound": "CCc1cccc(CC)c1-n1c(C)c(C(=O)O)cc(-c2nc(-c3ccc(Cl)cc3)cs2)c1=O",
    "System Under Test": "IDH1 R132C (Homo sapiens, UniProt O75874, R132C)",
    "IC50": "5000 to 20000 nM"
  },
  {
    "Compound": "CC1(C)CC(=O)c2cc(-c3nc(-c4ccc(Cl)cc4)cs3)c(=O)n(-c3ccccc3Cl)c2C1",
    "System Under Test": "IDH1 R132C (Homo sapiens, UniProt O75874, R132C)",
    "IC50": "< 300 nM"
  },
  {
    "Compound": "COc1ccc(Cl)c(-n2c(CC(C)C)c(C(=O)N3CCNCC3)cc(-c3nc(-c4ccc(Cl)cc4)cs3)c2=O)c1",
    "System Under Test": "IDH1 R132C (Homo sapiens, UniProt O75874, R132C)",
    "IC50": "300 to 1000 nM"
  }
]

q: Give the observed IC50 of CCc1cccc(CC)c1-n1c(C)c(C(=O)N2CCNC(CO)C2)cc(-c2nc(-c3ccc(Cl)cc3)cs2)c1=O (stereo not shown) for IDH1 R132C (Homo sapiens, UniProt O75874, R132C).
a: 300 to 1000 nM

q: Give the observed IC50 of "CCOc1ncccc1-n1c(C=C(C)C)c(C(=O)N2CCNCC2)cc(-c2nc(-c3ccc(Cl)cc3)cs2)c1=O" for IDH1 R132C (Homo sapiens, UniProt O75874, R132C).
a: 300 to 1000 nM
